In this section, each of the compounds is paired with its reported growth inhibition.
- measurement-protocol: NCI Yeast Anticancer Drug Screen. Data for the mec2-1 strain (AID 157)
- condition: S. cerevisiae mec2-1 strain, at 50.0 µM, active compounds read high
Compounds without any hit were thinned out: in the full panel of roughly 79,000, 15% have a hit.
Write the answer as a number in %, unit excluded.

Worked examples follow.
compound=CCCN=C(NC(=O)c1ccc(Cl)cc1)SC property="growth inhibition" u=% observed=-41.5
compound="COC(=O)CCc1cc(=O)oc2c3c(cc(OC)c12)OC1OC(=O)CC31 (stereo unspecified)" property="growth inhibition" u=% observed=-22.3
compound=CC(C)(C)c1cc(-c2cc(C(C)(C)C)[nH]n2)n[nH]1 property="growth inhibition" u=% observed=4

Exam item: Look at this compound and give its reported growth inhibition. Brc1c2ccccc2cc2ccccc12
Marked response: 29.8

Exam item: Proceed to O=C(O)CC(=O)CC(=O)c1ccccc1
Marked response: -18.5

Exam item: Proceed to CC1CCC2(CC1)NN=c1s/c(=C\c3ccc(O)cc3)c(=O)n1N2 (stereo unspecified)
Marked response: -1.7

Exam item: Proceed to Cc1ccc(S(=O)(=O)/C=C\S(=O)(=O)c2ccc(C)cc2)cc1
Marked response: -3.15

Exam item: Proceed to CCCCCCC#CC(=O)O
Marked response: -3.6

Exam item: Proceed to C(=C/c1ccccn1)/c1ccccc1
Marked response: 15.1

Exam item: Proceed to NC(=O)c1ccc([N+](=O)[O-])cc1
Marked response: -5.15

Exam item: Proceed to O=C1C=CC(=O)C1N=Nc1ccccc1
Marked response: 19.1

Data provenance is PubChem BioAssay (NCI).
